System Name: Nuclear receptor subfamily 1 group I member 3 (Homo sapiens) (UniProt Q14994)
Sequence (Q14994 whole entry, looked up): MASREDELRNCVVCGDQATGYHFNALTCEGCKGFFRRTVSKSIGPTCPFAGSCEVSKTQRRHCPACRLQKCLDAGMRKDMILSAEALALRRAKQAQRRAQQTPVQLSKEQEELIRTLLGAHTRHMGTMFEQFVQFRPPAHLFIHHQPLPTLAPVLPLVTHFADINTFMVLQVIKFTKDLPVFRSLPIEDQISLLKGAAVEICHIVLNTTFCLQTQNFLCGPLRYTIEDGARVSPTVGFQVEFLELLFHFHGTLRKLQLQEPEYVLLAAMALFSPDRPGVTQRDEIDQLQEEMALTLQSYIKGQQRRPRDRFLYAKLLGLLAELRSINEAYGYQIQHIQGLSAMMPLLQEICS
Test Summary: qHTS assay to identify small molecule agonists of the constitutive androstane receptor (CAR) signaling pathway (AID 1224839);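 also: HepG2 cells stably carrying human CAR and a CYP2B6 luciferase reporter; nearly all actives have a fitted effect of over 15% in size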
Protocol Conditions: HepG2 hCAR CYP2B6-luciferase, agonist mode, 24 h; series mostly up to 92.4 µM
Records with an inconclusive call do not appear. Activity calls are given as the source filed them. Calls follow the shape of the dose curve; as a rule, active = well fitted activation curve with a large enough effect in the repeat runs; inconclusive = weak or mixed curves; inactive = no such curve, though single readings can be large or run the other way.
Measure: outcome

O=[N+]([O-])c1ccc(Cl)c(Cl)c1 | inactive
Oc1c(Br)cc(Br)cc1Br | inactive
CNC(=O)O/N=C/C(C)(C)SC | inactive

====

Test Summary: qHTS assay for small molecule agonists of the antioxidant response element (ARE) signaling pathway (AID 743202)
Protocol Conditions: HepG2 ARE-bla reporter, beta-lactamase FRET, 16 h; series mostly up to 73.3 µM
Inconclusive results are not listed. Active and inactive are the calls of the source. Calls follow the shape of the dose curve; as a rule, active = well fitted activation curve with a large enough effect in the signal ratio in the repeat runs (not every such curve was filed as active); inconclusive = weak or mixed curves, or effect the other way; inactive = no such curve, though single readings can be large or run the other way; the % refers to the signal ratio.
Entry note: the call must match one of active, inactive

Before answering, review these 10 worked examples.
ClCCOCCCl | inactive
CN(C)C(=O)C(c1ccccc1)c1ccccc1 | inactive
O=C(O)c1cc(Oc2ccc(C(F)(F)F)cc2Cl)ccc1[N+](=O)[O-] | inactive
CCSC(=O)N1CCCCCC1 | inactive
Cc1cccc(N)c1 | inactive
OCc1ccco1 | inactive
O=S(=O)(O)OOS(=O)(=O)O | inactive
Oc1c(Br)cc(Br)cc1Br | active
CN1C(=O)CCS(=O)(=O)C1c1ccc(Cl)cc1 (stereo not given) | inactive
Cl/C=C/Cl | inactive

Kindly consider the entry below.
Data request: Test call, this molecule: Cc1ccc(N=C=O)cc1N=C=O
Data returned: inactive
